test: Stimulation of rat sGC expressed in CHO cells using GTP as substrate assessed as increase in cGMP formation treated for 6 mins in presence of sGC inhibitor ODQ by luminescence assay; format: cell-based
quantity-kind: pEC50
Note on units: pEC50 is unitless, being -log10 of a concentration expressed in mol/L.

State the recorded pEC50 for this entry: COC(=O)Nc1c(N)nc(-c2nn(Cc3ccccc3F)c3ncc(F)cc23)nc1N
6.59

* * *

experiment: Clearance in rat hepatocytes at 1 uM up to 90 mins by LC-MS/MS analysis; format: ADME, cell-based, Hepatocyte
A collection of compounds and their measured CLhep predicted at 1 µM
Field format: number, assumed L/h/kg, no unit text.

Please review the entries below; each comes with its answer.
>  <compound>
COC(=O)Nc1c(N)nc(-c2nn(Cc3ccccc3F)c3ncccc23)nc1N

>  <CLhep predicted at 1 µM, L/h/kg>
0.1

$$$$
>  <compound>
Nc1nc(-c2nn(Cc3ccccc3F)c3ncccc23)nc(N)c1N1C[C@@H](C(F)(F)F)OC1=O

>  <CLhep predicted at 1 µM, L/h/kg>
1.6

$$$$
>  <compound>
Nc1nc(-c2nn(Cc3ccccc3F)c3ncccc23)nc(N)c1NC(=O)OCC(F)(F)F

>  <CLhep predicted at 1 µM, L/h/kg>
2.1

$$$$
>  <compound>
CC(C)OC(=O)Nc1c(N)nc(-c2nn(Cc3ccccc3F)c3ncccc23)nc1N

>  <CLhep predicted at 1 µM, L/h/kg>
0.9

$$$$
>  <compound>
Nc1nc(-c2nn(Cc3ccccc3F)c3ncccc23)nc(N)c1NC(=O)OC1COC1

>  <CLhep predicted at 1 µM, L/h/kg>
0.1

$$$$

State the recorded CLhep predicted at 1 µM for this entry: COC(=O)N(Cc1ccc(F)cc1)c1c(N)nc(-c2nn(Cc3ccccc3F)c3ncccc23)nc1N
2.4

State the recorded CLhep predicted at 1 µM for this entry: COC(=O)Nc1c(N)nc(-n2nc(Cc3ccccc3F)c3ncc(F)cc32)nc1N
0.1
